measured.on: UniProt A0A0M4FML8
assay.text: Fluorescence competitive binding assay (1-NPN displacement), wild-type
experimental.setup: 2 μM rGmolCSP8 and 2 μM 1-NPN, pH 7.4; calculated from IC50; read-out: Ki
Exercise: state measured Ki for each of the molecules provided.

Answer with the recorded Ki for the molecule listed here: C=C/C(C)=C/CCC(=C)C 17.6 µM

Answer with the recorded Ki for the molecule listed here: CCCCCCCCCCCCCC > 24 µM

Answer with the recorded Ki for the molecule listed here: CCC/C=C\CCCCCCCOC(C)=O [(Z)-8-dodecenyl acetate] > 24 µM

Answer with the recorded Ki for the molecule listed here: CC1=CCC2CC1C2(C)C (centres unmarked) > 24 µM

Answer with the recorded Ki for the molecule listed here: CCCCCC(=O)OCC [Ethyl hexanoate] > 24 µM

Answer with the recorded Ki for the molecule listed here: CCCCCCCCC=O > 24 µM

Answer with the recorded Ki for the molecule listed here: CCCCCCC(=O)OCC [Ethyl heptanoate] > 24 µM

Answer with the recorded Ki for the molecule listed here: CCC/C=C/C=O [(E)-2-hexenal] > 24 µM

Answer with the recorded Ki for the molecule listed here: CCCCCCCCCCCCCCC > 24 µM

Answer with the recorded Ki for the molecule listed here: CCCCCCCCCC=O > 24 µM

Answer with the recorded Ki for the molecule listed here: CCCCCCCCCC > 24 µM

Answer with the recorded Ki for the molecule listed here: CCCCCCCC=O > 24 µM

Answer with the recorded Ki for the molecule listed here: CC/C=C\CCO [Cis-3-hexen-1-ol] 8.51 µM

Answer with the recorded Ki for the molecule listed here: CCCCCO 8.18 µM

Answer with the recorded Ki for the molecule listed here: CC/C=C\CCOC(C)=O [Cis-3-hexenyl acetate] > 24 µM

Answer with the recorded Ki for the molecule listed here: CC(C)CCO 6.32 µM

Answer with the recorded Ki for the molecule listed here: CCC/C=C/CCCCCCCOC(C)=O [(E)-8-dodecenyl acetate] > 24 µM

Answer with the recorded Ki for the molecule listed here: CCCCCCCCCCO 6.6 µM

Answer with the recorded Ki for the molecule listed here: CCCCCCCCCCCCCCCC > 24 µM

Answer with the recorded Ki for the molecule listed here: CC/C=C\CC1C(=O)CCC1CC(=O)OC (centres unmarked) [Methyl jasmonate] > 24 µM

---

measured.on: GmolCSP8-L80A (Grapholita molesta, UniProt A0A0M4FML8, L95A)
Sequence (A0A0M4FML8 entry or part of it L95A): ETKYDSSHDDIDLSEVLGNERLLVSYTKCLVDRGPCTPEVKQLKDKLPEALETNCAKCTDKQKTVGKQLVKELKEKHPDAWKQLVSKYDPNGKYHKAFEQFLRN
assay.text: Titration of protein with fluorescent probe 1-NPN, mutant L80A
assay.readout: Kd

Lab note: GmolCSP8-L80A (Grapholita molesta, UniProt A0A0M4FML8, L95A) assay, enter Kd for c1ccc(Nc2cccc3ccccc23)cc1 here 11.7 µM

---

Exercise: state measured pKi for each of the compounds provided.
measured.on: GmolCSP8-T27A (Grapholita molesta, UniProt A0A0M4FML8, T42A)
Sequence (A0A0M4FML8 entry or part of it T42A): as the sequence (A0A0M4FML8 entry or part of it L95A) above, with T27A, A80L counted along it
assay.text: biochemical
Assay type: binding
# pKi: negative log10 of molar concentration; output just the value

Answer with the recorded pKi for the compound listed here: CCCCCCCO 5.05

Answer with the recorded pKi for the compound listed here: CCCCCCCCCCO 4.90

---

measured.on: rGmolCSP8 (Grapholita molesta)
Sequence (A0A0M4FML8 entry or part of it): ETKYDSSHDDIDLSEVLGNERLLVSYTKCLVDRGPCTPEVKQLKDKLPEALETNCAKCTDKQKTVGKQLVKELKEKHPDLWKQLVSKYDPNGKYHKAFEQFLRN
assay.text: Fluorescence competitive binding assay (1-NPN displacement), wild-type
experimental.setup: 2 μM rGmolCSP8 and 2 μM 1-NPN, 20 mM Tris-HCl pH 7.4; read-out: IC50
pIC50: −log10 of the molar value.
Exercise: state measured pIC50 for each of the compounds provided.

Answer with the recorded pIC50 for the compound listed here: CCCCCCCCCCCCCCCCCC < 4.62

Answer with the recorded pIC50 for the compound listed here: CC/C=C\CCO [Cis-3-hexen-1-ol] 5.04

Answer with the recorded pIC50 for the compound listed here: CCC/C=C/C=O [(E)-2-hexenal] < 4.62

Answer with the recorded pIC50 for the compound listed here: CCCCCCCCCC=O < 4.62

Answer with the recorded pIC50 for the compound listed here: CC(C)CCO 5.18

Answer with the recorded pIC50 for the compound listed here: CC(=O)OCCC(C)C [Isoamyl acetate] < 4.62

Answer with the recorded pIC50 for the compound listed here: CC1=CCC2CC1C2(C)C (stereo not shown) < 4.62

Answer with the recorded pIC50 for the compound listed here: CCCCCC(=O)OCCCC [Butyl hexanoate] < 4.62

Answer with the recorded pIC50 for the compound listed here: CCCCCCCCCCCCCCCC < 4.62

Answer with the recorded pIC50 for the compound listed here: CCCCCCCCCCCCO 4.87

Answer with the recorded pIC50 for the compound listed here: CCCCCCOC(C)=O [Hexyl acetate] < 4.62

Answer with the recorded pIC50 for the compound listed here: N#Cc1ccccc1 < 4.62

Answer with the recorded pIC50 for the compound listed here: CC/C=C\CCOC(C)=O [Cis-3-hexenyl acetate] < 4.62

Answer with the recorded pIC50 for the compound listed here: COC(=O)c1ccccc1O [Methyl salicylate] < 4.62

Answer with the recorded pIC50 for the compound listed here: CCCCCO 5.06

Answer with the recorded pIC50 for the compound listed here: CCCCCCCCCCCCCCC < 4.62

Answer with the recorded pIC50 for the compound listed here: CCCCOC(=O)CCC [Butyl butyrate] < 4.62

Answer with the recorded pIC50 for the compound listed here: C=C/C(C)=C/CCC(=C)C 4.72

Answer with the recorded pIC50 for the compound listed here: CCC/C=C/CCCCCCCOC(C)=O [(E)-8-dodecenyl acetate] < 4.62

Answer with the recorded pIC50 for the compound listed here: CC/C=C\CC1C(=O)CCC1CC(=O)OC (stereo not shown) [Methyl jasmonate] < 4.62

Answer with the recorded pIC50 for the compound listed here: CCCCCCCO 5.17

Answer with the recorded pIC50 for the compound listed here: CCC/C=C\CCCCCCCO [(Z)-8-dodecenyl alcohol] < 4.62

Answer with the recorded pIC50 for the compound listed here: CCCCCCCC=O < 4.62

Answer with the recorded pIC50 for the compound listed here: CCCC(=O)OCC [Ethyl butyrate] < 4.62

Answer with the recorded pIC50 for the compound listed here: CCCCCCCCCCCCCC < 4.62

Answer with the recorded pIC50 for the compound listed here: CCCCCC=O < 4.62

Answer with the recorded pIC50 for the compound listed here: CCCCCCCCCCO 5.15

Answer with the recorded pIC50 for the compound listed here: CCCCCC(=O)OCC [Ethyl hexanoate] < 4.62
